# composite z-score annotations
Experiment: small-molecule microarray binders of probe aLefty2, primary screen, biochemical, biotinylated probe, 635/667 nm fluorescence (AID 1094);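 note: score merges spot fluorescence near 667 nm with spot signal-to-noise ratio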
Conditions: higher = more signal
Give the figure by itself; no unit, no explanation.

Record CC1=C[C@@]2(CO)C(=O)[C@]3(CO3)[C@@H]1[C@H]1[C@]2(C)C=C(CO)C(=O)[C@]12CO2 . Reported composite z-score: -0.113

Record C=CCC(OC(C)=O)[C@@H]1[C@@H](N(Cc2cc3ccccc3o2)C(=O)c2ccc(-c3ccccc3)cc2)c2cc(OCCCO)ccc2N1C(=O)c1ccc2ccccc2c1 (stereo partly drawn) . Reported composite z-score: -0.0485

More entries:
Record Cc1cc(C)cc(N2C(=O)CSC2c2cccc([N+](=O)[O-])c2)c1 (stereo not drawn) . Reported composite z-score: 0.154

* * *

# z-score annotations
Experiment: FRG1 promoter luciferase signal modulators, primary screen, FRG1 inhibition for FSHD, cell-based, C2C12 myotubes, firefly/Renilla luciferase, luminescence (AID 1084)
Details: higher = more signal, called active from +8 up or from −8 down
Give the figure by itself; no unit, no explanation.

These solved cases illustrate the format of a correct answer.
Record CCCNC(=O)[C@@H]1c2ccccc2C(=O)N(C(C)C)[C@H]1c1ccc(CO)cc1 . Reported z-score: -0.273

Record COCCOC(=O)N1C(=O)[C@@]2(c3ccccc31)[C@H](C(=O)N1CCN(c3ncccn3)CC1)[C@H]1C(=O)O[C@H](c3ccccc3)[C@H](c3ccccc3)N1[C@@H]2c1ccc(O)cc1 . Reported z-score: -0.79

Record CC1CC/C=C\[C@H]2OC34C=CCN(C(C)C)C(=O)[C@H]3N(CCCCCCO)C(=O)[C@@H]4C2C(=O)O1 (some centres undefined) . Reported z-score: 0.286

Kindly consider the entry below.
Record COc1ccc([Si](C)(C)[C@@H]2[C@@H](CC(=O)N(CCO)Cc3ccccc3)O[C@]3(C(=O)N(Cc4cccc(N5C(=O)c6cccc7cccc5c67)c4)c4ccccc43)[C@H]2C)cc1 . Reported z-score: -1.05

* * *

Target: Homeobox protein Hox-A13 (Mus musculus)
Assay: inhibitors of HoxA13-DNA binding, primary screen, biochemical, fluorescence polarization, labeled oligonucleotide (AID 1185)
Conditions: 15 min, higher = more signal, called active from +8 up or from −8 down
Assay Endpoint: z-score
Give the figure by itself; no unit, no explanation.

These solved cases illustrate the format of a correct answer.
Record COCCOC(=O)N1C(=O)[C@@]2(c3cc(C#Cc4ccc(OC)cc4)ccc31)[C@H](c1ccc(O)cc1)N1[C@H](c3ccccc3)[C@H](c3ccccc3)OC(=O)[C@H]1[C@@H]2C(=O)N1CCCCCCC1 . Reported z-score: 1.36

Record CCCC[C@@H](O)C1=C(COc2ccccc2)C[C@H]2C(=O)N(C)C(=O)[C@H]2[C@H]1CO . Reported z-score: -3.48

Record O=C1O[C@H](c2ccccc2)[C@H](c2ccccc2)N2[C@H]1[C@@H](C(=O)O)[C@]1(C(=O)Nc3ccc(C#CC4=CCCCC4)cc31)[C@H]2c1ccc(O)cc1 . Reported z-score: -5.74

Record C=CC1c2cc(O)c(OC)cc2CCN1Cc1cc2c(cc1Br)OCO2 (stereo not given) . Reported z-score: -5.73

Kindly consider the entry below.
Record CC(C)N1C(=O)c2ccccc2[C@@H](C(=O)NC2CC2)[C@@H]1c1ccc(CO)cc1 . Reported z-score: -2.99

* * *

Test system: Inhibin beta A chain (activin A)
Experiment: INHBA (activin A) binders on microarrays, primary screen, biochemical, small-molecule microarray, 635 nm fluorescence scan (AID 1107);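 note: mouse activin A protein probed at 4.33 µg/mL on printed slides; score merges bound-protein fluorescence near 667 nm with spot signal-to-noise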
Settings: small-molecule microarray binding, higher = more signal
Assay Endpoint: composite z-score
Give the figure by itself; no unit, no explanation.

These solved cases illustrate the format of a correct answer.
Record CCOc1cc(C(O)C2C=CC3C(=O)N(c4ccccc4)C(=O)C3N2Nc2ccc(C#N)cc2)ccc1O (stereo not drawn) . Reported composite z-score: 0.713

Record C=C(COC)/C(=C/C[C@H](OC(C)=O)c1ccc(OCCO)cc1)c1cc(C(=O)OC)ccc1OC . Reported composite z-score: 0.72

Record O=C1O[C@H](c2ccccc2)[C@H](c2ccccc2)N2[C@H]1[C@@H](C(=O)N1CCN(c3ncccn3)CC1)[C@]1(C(=O)Nc3ccc(C#CC4(O)CCCCCC4)cc31)[C@H]2c1ccc(OCCO)cc1 . Reported composite z-score: 0.86

Record COCCOC(=O)N1C(=O)[C@@]2(c3cc(C#CCCO)ccc31)[C@H](C(=O)Nc1nc3ccccc3s1)[C@H]1C(=O)O[C@H](c3ccccc3)[C@H](c3ccccc3)N1[C@@H]2c1ccccc1OCCO . Reported composite z-score: 0.923

Record CC(C)N1C(=O)C[C@@](C(=O)NCCCN(C)C)(c2ccc([N+](=O)[O-])cc2)[C@H]1c1ccc(CO)cc1 . Reported composite z-score: 0.698

More entries:
Record COCCCNC(=O)[C@@]1(Sc2ccc(C)cc2)CC(=O)N(C2CCCCC2)[C@@H]1c1ccc(CO)cc1 . Reported composite z-score: 0.446

Record CCCCC=C[C@@H](NC(=O)c1ccc(-c2ccccc2)cc1)c1ccccc1 . Reported composite z-score: 0.183

Record CN(C)C(=O)[C@@]1(Cc2ccccc2CN=[N+]=[N-])N=C(c2ccc(OCCCO)cc2)O[C@H]1c1ccccc1CN=[N+]=[N-] . Reported composite z-score: 0.846

* * *

Experiment: basal S. cerevisiae growth modulation, no modifier, primary screen, OD600, strain BY4716, 24 h, basal condition (AID 1173)
Conditions: OD600, 24 h, higher = more signal, called active from +8 up or from −8 down
Assay Endpoint: z-score
Give the figure by itself; no unit, no explanation.

These solved cases illustrate the format of a correct answer.
Record COC(=O)[C@@]1(Cc2ccc(F)cc2)[C@H]2c3cc(C(=O)N4CCCC4)n(CCc4ccc(O)c(O)c4)c3C[C@H]2CN1C(=O)c1ccccc1 . Reported z-score: 1.78

Record CCOC(=O)C[C@H]1[C@H](OC(=O)c2cc3ccccc3oc2=O)[C@@H](NC(=O)c2ccc(-c3ccccc3)cc2)c2cc(OCCCO)ccc2N1C(=O)c1ccccc1 . Reported z-score: -1.79

Record COC(=O)[C@@]1(Cc2ccccc2)[C@H]2c3cc(C(=O)N(C)C)n(CCc4ccc(O)c(OC)c4)c3C[C@H]2CN1C(=O)c1ccccc1 . Reported z-score: 0.483

Record [N-]=[N+]=NCc1ccccc1[C@H]1OC(c2ccc(OCCCO)cc2)=N[C@@]1(CCS(=O)(=O)c1ccccc1)C(=O)N1CCCCC1 . Reported z-score: 0.285

Record COC(=O)c1c2oc(c1C(=O)OC)C(=O)N(Cc1ccccc1)Cc1cn(nn1)C[C@H](Cc1ccccc1)NC(=O)N[C@H](CO)CC2 . Reported z-score: -1.78

Record CN(C)CCCCNC(=O)[C@@H]1C[C@@H]2C(=O)N[C@@H](Cc3ccccc3)C(=O)N2[C@@H]1c1cccc(OCCO)c1 . Reported z-score: -0.957

Record O=C1O[C@H](c2ccccc2)[C@H](c2ccccc2)N2[C@H]1[C@@H](C(=O)Nc1nc3ccccc3s1)[C@]1(C(=O)Nc3ccccc31)[C@H]2c1ccc(OCCO)cc1 . Reported z-score: 0.445

Record O=C1C=C(c2ccccc2)C(=O)c2ccc([C@H]3Oc4ccccc4S(=O)(=O)N4CCC[C@@H]34)cc21 . Reported z-score: -18.1

Kindly consider the entry below.
Record CN(C)CCCNC(=O)[C@@]1(c2ccc([N+](=O)[O-])cc2)CC(=O)N(CC23CC4CC(CC(C4)C2)C3)[C@@H]1c1ccc(CO)cc1I . Reported z-score: -16.9

* * *

# composite z-score annotations
System: Wnt5a (protein binding on small-molecule microarray)
Assay: Wnt5a binders on small-molecule microarray, primary screen, biophysical, 635/667 nm fluorescence (AID 1142);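 note: fluorescence read at 667 nm with signal to noise per printed feature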
Details: 635 nm fluorescence, higher = more signal
Give the figure by itself; no unit, no explanation.

Form field, composite z-score with Wnt5a (protein binding on small-molecule microarray), item CC(C)Cc1ccc(CN2CC[C@@H](NC(=O)Nc3ccccc3)C2)cc1 : 0.0405

More entries:
Form field, composite z-score with Wnt5a (protein binding on small-molecule microarray), item COc1ccc(NC(=O)O[C@H]2[C@H](OC(=O)Nc3ccccc3)[C@@H](OC(=O)Nc3ccccc3)[C@@H](OC)O[C@@H]2CO)cc1 : 1.48

Form field, composite z-score with Wnt5a (protein binding on small-molecule microarray), item COC(=O)c1c2oc(c1C(=O)OC)C(=O)N(C)Cc1cn(nn1)C[C@H](Cc1ccccc1)NC(=O)N[C@H](CO)CC2 : -0.334

* * *

Experiment: small-molecule microarray binders of probe aDKK1, primary screen, biochemical, biotinylated probe, 635/667 nm fluorescence (AID 1099);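 note: score merges 667nm spot fluorescence with signal to noise across triplicate slides; reference of the scale not given here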
Conditions: higher = more signal
# composite z-score annotations
Give the figure by itself; no unit, no explanation.

These solved cases illustrate the format of a correct answer.
Record C=C[C@@H](COC(C)=O)N(C(=O)OC(C)(C)C)S(=O)(=O)c1ccc(Br)cc1 . Reported composite z-score: 0.311

Record COCCOC(=O)N1C(=O)[C@@]2(c3ccccc31)[C@H](C(=O)N1CCN(c3ncccn3)CC1)[C@H]1C(=O)O[C@H](c3ccccc3)[C@H](c3ccccc3)N1[C@@H]2c1ccc(O)cc1 . Reported composite z-score: 0.184

Record [N-]=[N+]=Nc1ccccc1[C@H]1OC(c2ccc(OCCCO)cc2)=N[C@@]1(Cc1ccccc1)C(=O)N1CCCCC1 . Reported composite z-score: 1.04

Record CCOC(=O)C[C@H]1[C@H](OC(=O)c2cc3ccccc3oc2=O)[C@@H](NC(=O)c2ccc(-c3ccccc3)cc2)c2cc(OCCCO)ccc2N1C(=O)c1ccc2ccccc2n1 . Reported composite z-score: -0.183

Record CCCNC(=O)[C@@]1(c2ccc([N+](=O)[O-])cc2)CC(=O)N(C2CCCCC2)[C@@H]1c1ccc(CO)cc1 . Reported composite z-score: 0.175

Record C=CC1c2cc(O)c(OC)cc2CCN1Cc1cc2c(cc1Br)OCO2 (stereo not drawn) . Reported composite z-score: 0.276

Record C=CC[C@@]1(C(=O)N2CCOCC2)N=C(c2ccc(OCCCO)cc2)O[C@@H]1c1ccccc1CN=[N+]=[N-] . Reported composite z-score: 0.906

Kindly consider the entry below.
Record COc1cc(CO)cc(I)c1O[C@H]1C=C(C(=O)NCCO)C[C@@H](NCc2ccc(F)cc2)[C@@H]1O . Reported composite z-score: -0.197
